Listing of entries alongside the reported pKi.
- study-target: Adenosine receptor A2a (Homo sapiens, UniProt P29274)
- Sequence (P29274 whole entry): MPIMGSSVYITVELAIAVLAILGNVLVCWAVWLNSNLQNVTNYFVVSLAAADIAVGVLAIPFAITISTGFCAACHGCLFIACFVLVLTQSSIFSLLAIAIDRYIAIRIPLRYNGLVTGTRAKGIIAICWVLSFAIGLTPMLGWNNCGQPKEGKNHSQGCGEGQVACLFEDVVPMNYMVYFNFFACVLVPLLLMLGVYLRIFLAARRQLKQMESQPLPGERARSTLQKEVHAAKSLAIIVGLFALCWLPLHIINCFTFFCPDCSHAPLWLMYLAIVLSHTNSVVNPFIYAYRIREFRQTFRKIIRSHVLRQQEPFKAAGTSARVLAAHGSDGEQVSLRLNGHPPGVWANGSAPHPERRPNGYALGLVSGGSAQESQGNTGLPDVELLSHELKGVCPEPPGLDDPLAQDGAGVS
In plain terms, pKi is the concentration in mol/L turned into minus its base-10 logarithm.

> print(dat)
                                   compound  recorded.value
1  CCCCNc1c(C(=O)OCC)c(C)nc2c1cnn2CC [NSC_5522]            5.81
2  COc1ccc(-c2nc3c([nH]2)c(=O)n(C)c(=O)n3C)cc1            6.38
3            CCCCNc1c(C(=O)OCC)cnc2c1cnn2CC            5.65

Ask | Determine its reported pKi: `Cn1c(=O)c2[nH]c(-c3ccc(Cl)cc3)nc2n(C)c1=O`
Reply | 6.43

====

- study-target: Adenosine receptor A2a (Homo sapiens)
property-measured: Ki (nM)
Write the answer as a number in nM, unit excluded.

Answered examples (2):
> print(dat)
                             entry.smiles  result.unit  recorded.value
1  Cn1c(=O)c2nc(-c3ccccc3N)[nH]c2n(C)c1=O           nM            1430
2    Cn1c(=O)c2nc(-c3cccs3)[nH]c2n(C)c1=O           nM            1580

Next compound, please.
Ask | Give Adenosine receptor A2a (Homo sapiens) Ki for the following compound: `CCCn1c(=O)c2nc(-c3ccc(N)cc3N)[nH]c2n(CCC)c1=O`
Reply | 214

====

These records show pKi for Adenosine receptor A2a (Rattus norvegicus, UniProt P30543).
In plain terms, pKi is the concentration in mol/L turned into minus its base-10 logarithm.

Answered examples (4):
> print(dat)
                                   compound  recorded.value
1  Nc1ncnc2c1ncn2[C@@H]1O[C@H](CO[N+](=O)[O-])[C@@H](O)[C@H]1O            6.47
2  Nc1ncnc2c1ncn2[C@@H]1O[C@H](CNC(=O)C2CC2)[C@@H](O)[C@H]1O [Ado-5'-cyclopropylcarboxamide]            7.87
3  NC(=O)OC[C@H]1O[C@@H](n2cnc3c(N)ncnc32)[C@H](O)[C@@H]1O [Ado-5'-carboxamide]            6.92
4  Nc1nc(=O)[nH]c2c1ncn2[C@@H]1O[C@H](CO)[C@@H](O)[C@H]1O            6.48

Ask | Give Adenosine receptor A2a (Rattus norvegicus, UniProt P30543) pKi for the following compound: `Cn1c(N)c2ncn([C@@H]3O[C@H](CO)[C@@H](O)[C@H]3O)c2nc1=O`
Reply | 5.49

====

- study-target: Adenosine receptor A2a (Rattus norvegicus)
- Sequence (P30543 whole entry): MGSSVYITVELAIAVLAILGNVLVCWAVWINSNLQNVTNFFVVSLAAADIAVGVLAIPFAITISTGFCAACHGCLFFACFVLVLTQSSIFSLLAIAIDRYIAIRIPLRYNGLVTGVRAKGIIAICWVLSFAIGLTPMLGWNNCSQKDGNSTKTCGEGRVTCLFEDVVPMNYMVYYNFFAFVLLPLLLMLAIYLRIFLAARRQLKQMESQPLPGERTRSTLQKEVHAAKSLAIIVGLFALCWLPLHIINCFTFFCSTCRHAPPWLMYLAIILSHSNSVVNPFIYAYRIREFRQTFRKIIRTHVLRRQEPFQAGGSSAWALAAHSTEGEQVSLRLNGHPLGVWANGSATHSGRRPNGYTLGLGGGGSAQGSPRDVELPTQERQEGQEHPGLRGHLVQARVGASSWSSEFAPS
property-measured: Ki (nM)
Write the answer as a number in nM, unit excluded.

> print(dat)
                                   molecule  result.unit  recorded.value
1  Nc1nc(NC2CCCC2)nc2c1ncn2[C@@H]1O[C@H](CO)[C@@H](O)[C@H]1O           nM             462
2  NC(=O)CCOC[C@H]1O[C@@H](n2cnc3c(N)ncnc32)[C@H](O)[C@@H]1O [Ado-5'-(2-hydroxyethyl)carboxamide]           nM            57.5
3  Nc1ncnc2c1ncn2[C@@H]1O[C@H](NC(=O)C2CCCCC2)[C@@H](O)[C@H]1O [Ado-5'-cyclohexylcarboxamide]           nM            4300
4  Nc1ncnc2c1ncn2[C@@H]1O[C@H](CI)[C@@H](O)[C@H]1O           nM             637

Ask | Give Adenosine receptor A2a (Rattus norvegicus) Ki for the following molecule: CCC(=O)OC[C@H]1O[C@@H](n2cnc3c(N)ncnc32)[C@H](O)[C@@H]1O [Ado-5'-ethylcarboxylate]
Reply | 387

This collection of values is drawn from BindingDB's records for PubMed 3010074.
